Kindly state log10 IC50 for each of the entries shown.
Values reflect log10 of reported IC50 (µM).

Response field log10 IC50 (UniProt Q7ZJM1) for item O=C(NCc1ccc(F)cc1F)c1c(Nc2ccc(-c3ccccc3)cc2)c2cccnc2n(O)c1=O : 1.72

Response field log10 IC50 (UniProt Q7ZJM1) for item CCOC(=O)[C@@H]1CCCN1c1c(C(=O)NCc2ccc(F)cc2F)c(=O)n(O)c2ncccc12 : 1.93

Response field log10 IC50 (UniProt Q7ZJM1) for item O=C(NCc1ccc(F)cc1F)c1c(NCCCCc2ccccc2)c2cccnc2n(O)c1=O : 1.08

Response field log10 IC50 (UniProt Q7ZJM1) for item CN(C)c1c(C(=O)NCc2ccc(F)cc2F)c(=O)n(O)c2ncccc12 : 1.32

Response field log10 IC50 (UniProt Q7ZJM1) for item O=C(NCc1ccc(F)cc1F)c1c(NCCO)c2cccnc2n(O)c1=O : -0.26

Response field log10 IC50 (UniProt Q7ZJM1) for item COC(=O)[C@H](CO)Nc1c(C(=O)NCc2ccc(F)cc2F)c(=O)n(O)c2ncccc12 : 0.76

Response field log10 IC50 (UniProt Q7ZJM1) for item CC(C)Nc1c(C(=O)NCc2ccc(F)cc2F)c(=O)n(O)c2ncccc12 : 0.26

Response field log10 IC50 (UniProt Q7ZJM1) for item CNc1c(C(=O)NCc2ccc(F)cc2F)c(=O)n(O)c2ncccc12 : 0.57

Response field log10 IC50 (UniProt Q7ZJM1) for item COC(=O)[C@@H](CO)Nc1c(C(=O)NCc2ccc(F)cc2F)c(=O)n(O)c2ncccc12 : 0.64
